tested on: HUVEC/MSC spheroids viability; experiment: Human HUVEC/MSC cell line growth inhibition [KRAS2]; conditions: second compound 0.3 µM; first compound 0.1 µM; active compounds read low;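 also: percent of DMSO vehicle control luminescence so 100% = untreated viability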
METRIC_NAME: viability, T/C (%)

>>> endpoint_result("CC1OCC2(CCN(c3cnc(Sc4ccnc(N)c4Cl)c(N)n3)CC2)C1N (stereo not drawn) + C=CC(=O)N1CCN(c2nc(OCC3CCCN3C)nc3c2CCN(c2cccc4cccc(C)c24)C3)CC1CC#N")
90.7
>>> endpoint_result("COc1cc(Nc2ncc3c(n2)-c2ccc(Cl)cc2C(c2c(F)cccc2OC)=NC3)ccc1C(=O)O + C=CC(=O)N1CCN(c2nc(OCC3CCCN3C)nc3c2CCN(c2cccc4cccc(C)c24)C3)CC1CC#N")
79.5
>>> endpoint_result("CCNC(=O)CC1N=C(c2ccc(Cl)cc2)c2cc(OC)ccc2-n2c(C)nnc21 (stereo not drawn) + C=CC(=O)N1CCN(c2nc(OCC3CCCN3C)nc3c2CCN(c2cccc4cccc(C)c24)C3)CC1CC#N")
64.3
